molecular target: Avi-KRAS G12D/Q25A (1-169) GppNHp/3×FLAG-PI3KCA (157-299) (Homo sapiens, UniProt P01116, G12D/Q25A); construct: Avi-KRAS G12D/Q25A (1-169) GppNHp; experiment: HTRF PI3KCA-KRAS G12D/Q25A-GppNHp disruption assay; conditions: 1 h incubation
Sequence (P01116 1-169 isoform P01116-2 G12D/Q25A limits assumed): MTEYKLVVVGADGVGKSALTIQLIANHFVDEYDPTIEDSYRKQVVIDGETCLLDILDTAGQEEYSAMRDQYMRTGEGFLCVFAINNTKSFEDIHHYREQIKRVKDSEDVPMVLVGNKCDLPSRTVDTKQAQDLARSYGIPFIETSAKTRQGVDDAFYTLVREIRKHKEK
pIC50: −log10 of the molar value.
readout.label: pIC50

Consider the following illustrative entries.
[
  {
    "compound": "C[C@@H]1CNCCN1c1nc(OC[C@]23CCCN2C[C@H](F)C3)nc2c(F)c(-c3ccc(F)c4sc(N)nc34)c(C(F)(F)F)cc12 [Compound 209]",
    "readout.label": "pIC50",
    "val": "5.00 to 6.00"
  },
  {
    "compound": "CN1CCC[C@H]1COc1nc(N2CCNCC2)c2cc(C(F)(F)F)c(-c3ccc(F)c4sc(N)nc34)c(F)c2n1 [Compound 115]",
    "readout.label": "pIC50",
    "val": "5.00 to 6.00"
  },
  {
    "compound": "CN(c1nc(OC[C@@]23CCCN2C[C@H](F)C3)nc2c(F)c(-c3ccc(F)c4sc(N)c(C#N)c34)c(C#N)cc12)[C@@H]1CCNC1 [Compound 345]",
    "readout.label": "pIC50",
    "val": "6.00 to 7.00"
  }
]

**Q:** Report measured pIC50; entry is CN1CCC[C@H]1COc1nc(N2CCNCC2)c2cc(C(F)F)c(-c3ccc(F)c4sc(N)nc34)c(F)c2n1 [Compound 217]
**A:** 5.00 to 6.00

**Q:** Read the entry CN(c1nc(OC[C@@]23CCCN2C[C@H](F)C3)nc2c(F)c(-c3ccc(F)c4sc(N)c(C#N)c34)c(F)cc12)[C@@H]1CCNC1 [Compound 377] and write its reported pIC50.
**A:** 6.00 to 7.00
